Target: human 5-hydroxytryptamine-2C (h5-HT2C) receptor (Homo sapiens, UniProt P28335)
Construct: expressed in transfected cells; host or cells: CHO (Chinese Hamster Ovary) cells; membrane preparation
Sequence (P28335 33-458): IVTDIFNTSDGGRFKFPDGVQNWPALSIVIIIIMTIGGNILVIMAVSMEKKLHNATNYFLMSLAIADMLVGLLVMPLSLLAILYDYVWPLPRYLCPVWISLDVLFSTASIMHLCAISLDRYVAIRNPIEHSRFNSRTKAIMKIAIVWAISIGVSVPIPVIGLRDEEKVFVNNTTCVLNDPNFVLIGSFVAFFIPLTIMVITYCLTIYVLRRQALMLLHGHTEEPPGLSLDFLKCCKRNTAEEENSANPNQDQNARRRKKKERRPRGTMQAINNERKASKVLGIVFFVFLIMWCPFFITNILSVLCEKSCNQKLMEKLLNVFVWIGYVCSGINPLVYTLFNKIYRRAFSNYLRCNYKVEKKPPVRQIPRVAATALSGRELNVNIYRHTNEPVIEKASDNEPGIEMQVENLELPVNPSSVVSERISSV
Assay: [125I]DOI binding to membranes of CHO cells expressing h5-HT2C receptor
Conditions: read-out: 5-HT2C Binding Ki avg
pKi: −log10 of the molar value. Where a name gives a salt, the structure may show the parent alone.
Reported pKi values for the following compounds.

Below: 3 compounds and their reported pKi.
[
  {
    "compound": "CNC[C@@H]1CCc2cccc(-c3ccccc3)c2O1 [Compound 22, hydrochloride]",
    "pKi": "< 7.30"
  },
  {
    "compound": "NC[C@H]1CCc2cccc(-c3ccccc3Cl)c2O1 [Compound 11, hydrochloride]",
    "pKi": "≥ 8.00"
  },
  {
    "compound": "Cc1ccccc1-c1cccc2c1O[C@H](CN)CC2 [Compound 33, hydrochloride]",
    "pKi": "7.30 to 8.00"
  }
]

The compound listed as NC[C@@H]1CCc2cc(F)cc(-c3ccc(Cl)cc3Cl)c2O1 [Compound 56, hydrochloride] has a reported pKi of 7.30 to 8.00

The compound listed as CNCC1CCc2cccc(-c3ccccc3Cl)c2O1 (stereo not shown) [Compound 1, hydrochloride] has a reported pKi of 7.30 to 8.00

The compound listed as NC[C@H]1CCc2cccc(-c3ccc(Cl)cc3Cl)c2O1 [Compound 13, hydrochloride] has a reported pKi of ≥ 8.00

The compound listed as COc1ccccc1-c1cccc2c1O[C@H](CN)CC2 [Compound 31, hydrochloride] has a reported pKi of < 7.30

The compound listed as Cc1ccccc1-c1c(Cl)ccc2c1O[C@@H](CN)CC2 [Compound 69, hydrochloride] has a reported pKi of ≥ 8.00

The compound listed as NC[C@H]1CCc2cc(F)cc(-c3ccccc3)c2O1 [Compound 48, hydrochloride] has a reported pKi of ≥ 8.00

The compound listed as NC[C@H]1CCCc2cc(F)cc(-c3c(Cl)cccc3Cl)c2O1 [Compound 68, hydrochloride] has a reported pKi of 7.30 to 8.00

----------
Reported pEC50 values for the following molecules.
Biological target: human 5-HT2C receptor (Homo sapiens, UniProt P28335)
Sequence (P28335 33-458): as above
Assay: calcium mobilization (FLIPR) in CHO cells stably expressing the human 5-HT2C receptor
Details: calcium mobilization; read-out: 5-HT2C Function EC50
pEC50: −log10 of the molar value. Counter-ions that a name gives are not always drawn.

Below: 4 molecules and their reported pEC50.
[
  {
    "molecule": "NC[C@H]1CCc2cccc(-c3ccccc3Cl)c2O1 [Compound 11, hydrochloride]",
    "pEC50": "> 7.30"
  },
  {
    "molecule": "NC[C@H]1C=Cc2cc(F)cc(-c3ccccc3Cl)c2O1 [Compound 64, hydrochloride]",
    "pEC50": "> 7.30"
  },
  {
    "molecule": "NC[C@@H]1CCc2cccc(-c3ccccc3Cl)c2O1 [Compound 27, hydrochloride]",
    "pEC50": "6.70 to 7.30"
  },
  {
    "molecule": "NCC1C=Cc2cc(F)cc(-c3ccccc3Cl)c2O1 (stereo not drawn) [Compound 62, hydrochloride]",
    "pEC50": "> 7.30"
  }
]

The molecule listed as NC[C@H]1CCc2cccc(-c3c(Cl)cccc3Cl)c2O1 [Compound 36, hydrochloride] has a reported pEC50 of > 7.30

The molecule listed as CNC[C@H]1CCc2cc(F)cc(-c3ccccc3C)c2O1 [Compound 43, hydrochloride] has a reported pEC50 of 6.70 to 7.30

The molecule listed as NC[C@H]1C=Cc2cccc(-c3c(Cl)cccc3Cl)c2O1 [Compound 60, hydrochloride] has a reported pEC50 of > 7.30

----------
Reported pEC50 values for the following molecules.
Molecular target: human 5-HT2C receptor (Homo sapiens)
Experiment: calcium mobilization (FLIPR) in CHO cells stably expressing the human 5-HT2C receptor
Details: calcium mobilization; read-out: 5-HT2C Function EC50
pEC50: −log10 of the molar value. Where a name gives a salt, the structure may show the parent alone.

The molecule listed as CNCC1C=Cc2cc(F)cc(-c3ccccc3Cl)c2O1 (centres unmarked) [Compound 61, hydrochloride] has a reported pEC50 of > 7.30

The molecule listed as COc1ccccc1-c1cc(F)cc2c1O[C@@H](CN)CC2 [Compound 38, hydrochloride] has a reported pEC50 of > 7.30

The molecule listed as CNCC1CCc2cccc(-c3ccccc3Cl)c2O1 (centres unmarked) [Compound 1, hydrochloride] has a reported pEC50 of > 7.30

The molecule listed as Cc1ccccc1-c1cc(F)cc2c1O[C@H](CN)CC2 [Compound 53, hydrochloride] has a reported pEC50 of 6.70 to 7.30

The molecule listed as COc1ccccc1-c1cc(F)cc2c1O[C@@H](CN)C=C2 [Compound 65, hydrochloride] has a reported pEC50 of > 7.30

The molecule listed as CNC[C@@H]1CCc2cccc(-c3ccc(OC)cc3OC)c2O1 [Compound 24, hydrochloride] has a reported pEC50 of 6.70 to 7.30

The molecule listed as NC[C@H]1CCc2cc(F)cc(-c3cccnc3)c2O1 [Compound 50, hydrochloride] has a reported pEC50 of > 7.30

The molecule listed as NC[C@H]1CCc2cc(F)cc(-c3c(Cl)cccc3Cl)c2O1 [Compound 57, hydrochloride] has a reported pEC50 of > 7.30
